# Target Or System: T1, rat IL-17A (rat, UniProt Q61453 18-150, limits assumed)
# T1 construct: Purified recombinant protein in SPR
# T1 sequence (looked up): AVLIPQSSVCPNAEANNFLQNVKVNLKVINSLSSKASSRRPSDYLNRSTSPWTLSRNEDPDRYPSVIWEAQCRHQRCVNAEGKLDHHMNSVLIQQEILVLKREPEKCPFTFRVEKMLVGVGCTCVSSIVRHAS
# Protocol Notes: SPR (Biacore 3000), antibody captured by anti-Fc, antigen in solution;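 further: purified recombinant IL-17 antigens flowed over captured antibodies in HBS-EP buffer, global Langmuir one-to-one fit of association and dissociation phases, KD derived from koff over kon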
Measure Name: koff (s⁻¹)
Write it as a number; the unit s⁻¹ goes unstated.

QUERY: What value of koff has been recorded for this entry: IL17-h5C5.8 (antibody, V domains shown, IgG; constant regions not specified; also called h5C5.8 (VH.1-Vk.1a)) VH: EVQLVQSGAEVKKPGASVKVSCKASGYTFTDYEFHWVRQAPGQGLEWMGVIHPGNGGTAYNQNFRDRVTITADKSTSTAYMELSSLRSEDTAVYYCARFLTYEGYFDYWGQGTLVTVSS VL: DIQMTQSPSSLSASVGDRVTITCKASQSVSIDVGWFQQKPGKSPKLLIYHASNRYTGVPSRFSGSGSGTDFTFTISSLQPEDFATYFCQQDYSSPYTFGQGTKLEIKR
RESULT: 0.011
